# systemName: Lysine-specific demethylase 4A (Homo sapiens) (UniProt O75164)
# Sequence (O75164 whole entry, looked up, the tested form may be a part): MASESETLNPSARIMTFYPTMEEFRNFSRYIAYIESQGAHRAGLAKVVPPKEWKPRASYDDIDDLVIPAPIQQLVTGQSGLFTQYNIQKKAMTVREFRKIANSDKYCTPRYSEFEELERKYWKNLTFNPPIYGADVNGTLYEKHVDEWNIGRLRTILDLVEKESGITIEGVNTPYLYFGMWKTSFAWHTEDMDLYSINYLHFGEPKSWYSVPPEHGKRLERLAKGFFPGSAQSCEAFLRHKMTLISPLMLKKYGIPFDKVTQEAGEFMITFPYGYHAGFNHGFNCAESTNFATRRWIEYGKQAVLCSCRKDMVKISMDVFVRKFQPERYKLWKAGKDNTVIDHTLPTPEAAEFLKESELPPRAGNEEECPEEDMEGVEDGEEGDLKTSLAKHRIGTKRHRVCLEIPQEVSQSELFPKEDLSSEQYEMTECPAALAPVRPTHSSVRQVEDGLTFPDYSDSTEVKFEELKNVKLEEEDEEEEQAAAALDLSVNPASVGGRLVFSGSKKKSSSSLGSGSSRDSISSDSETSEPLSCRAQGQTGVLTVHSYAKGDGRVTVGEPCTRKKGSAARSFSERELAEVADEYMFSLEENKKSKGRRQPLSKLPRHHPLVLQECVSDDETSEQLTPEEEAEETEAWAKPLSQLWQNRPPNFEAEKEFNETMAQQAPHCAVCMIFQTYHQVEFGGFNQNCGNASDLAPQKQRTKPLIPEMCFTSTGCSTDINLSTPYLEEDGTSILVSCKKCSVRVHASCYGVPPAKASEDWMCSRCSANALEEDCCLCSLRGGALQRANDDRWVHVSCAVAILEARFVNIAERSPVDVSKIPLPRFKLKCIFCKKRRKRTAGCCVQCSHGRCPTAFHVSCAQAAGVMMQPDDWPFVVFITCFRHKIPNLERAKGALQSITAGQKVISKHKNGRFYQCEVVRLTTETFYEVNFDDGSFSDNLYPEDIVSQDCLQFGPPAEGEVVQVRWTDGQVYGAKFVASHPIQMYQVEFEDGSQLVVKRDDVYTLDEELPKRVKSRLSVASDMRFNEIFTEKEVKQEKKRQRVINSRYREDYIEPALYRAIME
# experimentalDetails: qHTS Assay for Inhibitors of JMJD2A-Tudor Domain; also: nearly all actives have a fitted effect of over 50% in size
# appliedConditions: AlphaScreen JMJD2A-Tudor / H3K4me3 peptide binding; series mostly up to 114 µM
Screen size: about 390,000 compounds; about 17,000 (4.4%) were called active. Another 8% or so got no clear call; they are omitted. Calls follow the shape of the dose curve; as a rule, active = well fitted inhibition curve with a large enough effect; inconclusive = small, poorly fitted or top-dose-only effect; inactive = no such curve, though single readings can be large or run the other way. The full list was thinned out, with actives kept by preference.
Parameter call: string, one of active, inactive

Please review the entries below; each comes with its answer.
In [3]: df
Out[3]:
                                   compound  qualitativelabel
0  COC(=O)C1=C(c2ccc(F)cc2F)C[C@@H]2CC[C@H]1N2C(=O)NC1CC1          inactive
1  COC(=O)C1=C(c2ccc(C(C)=O)cc2)C[C@@H]2CC[C@H]1N2C(=O)NCCNC(C)=O          inactive
2  C=CC12CN(C)[C@@H]3C4CO[C@H](C[C@H]41)[C@]1(C(=O)Nc4ccccc41)[C@@H]32 (stereo partly specified)          inactive
3  O=C1C2(Cl)C3(Cl)C4(Cl)C(Cl)(Cl)C5(Cl)C3(Cl)C1(Cl)C5(Cl)C24Cl (stereo unspecified)          inactive
4         Nc1ccc(C(=O)N/N=C2/CN3CCC2CC3)cc1            active

*Q* Recorded call for CCOC(=O)CC(SP1(=S)OCC2(CCCCO2)C(C2CCCCO2)O1)C(=O)OCC (stereo unspecified) ?
*A* inactive

Provenance of the data: PubChem BioAssay AID504339
